Hey, just so you know, these numbers are from the supplement of paper PMC9112550.

# Tested on: Escherichia coli TOP10
# Assay: shrunken log2 fold change of peptide-encoding DNA abundance (4.5 h post-induction vs induction); higher = less antimicrobial activity (less host growth inhibition)
# Assay Setup: time post-induction: 4.5 h; library: site-saturation at positions 5, 18, 19, 20
shrunken log2 fold change class ranges: lower level: < -0.1; middle level: ≥ -0.1 and < 0.3; upper level: ≥ 0.3

Below are worked cases with known answers.
Chain	Group Label
RRIRTRPPRLPRPRPRPADHPRP	middle level
RRIRARPPRLPRPRPRPLAVPRP	upper level
RRIRSRPPRLPRPRPRPGMSPRP	middle level
RRIRLRPPRLPRPRPRPKGAPRP	upper level
RRIRARPPRLPRPRPRPMGFPRP	lower level
RRIRHRPPRLPRPRPRPAWLPRP	middle level
RRIRNRPPRLPRPRPRPINPPRP	lower level
RRIRIRPPRLPRPRPRPCNWPRP	lower level
RRIRLRPPRLPRPRPRPKLAPRP	middle level
RRIRPRPPRLPRPRPRPPWPPRP	upper level

Hello team, could you let me know which band the following sequence falls into: RRIRDRPPRLPRPRPRPELAPRP
upper level

Hello team, could you let me know which band the following sequence falls into: RRIRWRPPRLPRPRPRPQQMPRP
lower level

* * *

# Test system: Escherichia coli TOP10
# Assay: shrunken log2 fold change of peptide-encoding DNA abundance (4.5 h post-induction vs induction); higher = less antimicrobial activity (less host growth inhibition)
# Assay Setup: time post-induction: 4.5 h; library: site-saturation at positions 5, 18, 19, 20
Listed sequences paired with reported shrunken log2 fold change
// no unit, no text: just the number

Consider the reported shrunken log2 fold change for these sequences:
Chain	shrunken log2 fold change
RRIRHRPPRLPRPRPRPSNIPRP	-0.332
RRIRERPPRLPRPRPRPIPDPRP	-0.209

What measured shrunken log2 fold change goes with RRIRLRPPRLPRPRPRPNQDPRP ?
-0.0883

* * *

# System: Escherichia coli TOP10
# Assay: shrunken log2 fold change of peptide-encoding DNA abundance (4.5 h post-induction vs induction); higher = less antimicrobial activity (less host growth inhibition)
# Assay Setup: time post-induction: 4.5 h; library: site-saturation at positions 5, 18, 19, 20
Readout Name: shrunken log2 fold change
// no unit, no text: just the number

Consider the reported shrunken log2 fold change for these sequences:
Chain	shrunken log2 fold change
RRIRLRPPRLPRPRPRPEDGPRP	-0.0468
RRIRVRPPRLPRPRPRPFGHPRP	0.13
RRIRFRPPRLPRPRPRPFCMPRP	-0.62

What measured shrunken log2 fold change goes with RRIRGRPPRLPRPRPRPDPFPRP ?
0.302

What measured shrunken log2 fold change goes with RRIRWRPPRLPRPRPRPQDVPRP ?
-0.0384

What measured shrunken log2 fold change goes with RRIRFRPPRLPRPRPRPLIPPRP ?
-0.651

What measured shrunken log2 fold change goes with RRIRGRPPRLPRPRPRPTVMPRP ?
0.074

* * *

# System: Escherichia coli TOP10;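 further: peptides expressed intracellularly from a pBAD plasmid library in pooled LB shake-flask culture, induced with 0.3% L-arabinose, DNA abundance read by NGS, three biological replicates, DESeq2 with apeglm shrinkage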
# Assay: shrunken log2 fold change of peptide-encoding DNA abundance (4.5 h post-induction vs induction); higher = less antimicrobial activity (less host growth inhibition)
# Assay Setup: time post-induction: 4.5 h; library: site-saturation at positions 5, 18, 19, 20
Outcome label depends on shrunken log2 fold change relative to 0.01: at/above gives MET, below gives NOT MET.

Below are worked cases with known answers.
Chain	Group Label
RRIRIRPPRLPRPRPRPSGEPRP	NOT MET
RRIRSRPPRLPRPRPRPDQHPRP	NOT MET
RRIRMRPPRLPRPRPRPILAPRP	MET
RRIRRRPPRLPRPRPRPWLDPRP	NOT MET
RRIRWRPPRLPRPRPRPKDFPRP	MET
RRIRFRPPRLPRPRPRPRIGPRP	MET

Quick check: does RRIRDRPPRLPRPRPRPKMEPRP have shrunken log2 fold change greater than or equal to 0.01?
NOT MET

Quick check: does RRIRLRPPRLPRPRPRPHYLPRP have shrunken log2 fold change greater than or equal to 0.01?
NOT MET

Quick check: does RRIRCRPPRLPRPRPRPTVEPRP have shrunken log2 fold change greater than or equal to 0.01?
MET

Quick check: does RRIRHRPPRLPRPRPRPTYYPRP have shrunken log2 fold change greater than or equal to 0.01?
NOT MET

Quick check: does RRIRKRPPRLPRPRPRPEHLPRP have shrunken log2 fold change greater than or equal to 0.01?
MET

Quick check: does RRIRARPPRLPRPRPRPTASPRP have shrunken log2 fold change greater than or equal to 0.01?
MET

Quick check: does RRIRNRPPRLPRPRPRPVMDPRP have shrunken log2 fold change greater than or equal to 0.01?
MET

Quick check: does RRIRRRPPRLPRPRPRPKSQPRP have shrunken log2 fold change greater than or equal to 0.01?
MET

Quick check: does RRIRKRPPRLPRPRPRPKADPRP have shrunken log2 fold change greater than or equal to 0.01?
MET

Quick check: does RRIRQRPPRLPRPRPRPRMRPRP have shrunken log2 fold change greater than or equal to 0.01?
MET

Quick check: does RRIRWRPPRLPRPRPRPVVRPRP have shrunken log2 fold change greater than or equal to 0.01?
MET

Quick check: does RRIRMRPPRLPRPRPRPYMNPRP have shrunken log2 fold change greater than or equal to 0.01?
NOT MET

Quick check: does RRIRVRPPRLPRPRPRPMDPPRP have shrunken log2 fold change greater than or equal to 0.01?
NOT MET

Quick check: does RRIRHRPPRLPRPRPRPVQAPRP have shrunken log2 fold change greater than or equal to 0.01?
NOT MET

Quick check: does RRIRSRPPRLPRPRPRPPPRPRP have shrunken log2 fold change greater than or equal to 0.01?
MET
